- tested_on: ΔF508-CFTR (Homo sapiens, UniProt P13569, DEL508-508)
- Construct: expressed in transfected cells; co-expressing YFP-H148Q/I152L in the fluorescence assay
- Sequence (P13569 with tags, fused parts or gaps DEL508-508): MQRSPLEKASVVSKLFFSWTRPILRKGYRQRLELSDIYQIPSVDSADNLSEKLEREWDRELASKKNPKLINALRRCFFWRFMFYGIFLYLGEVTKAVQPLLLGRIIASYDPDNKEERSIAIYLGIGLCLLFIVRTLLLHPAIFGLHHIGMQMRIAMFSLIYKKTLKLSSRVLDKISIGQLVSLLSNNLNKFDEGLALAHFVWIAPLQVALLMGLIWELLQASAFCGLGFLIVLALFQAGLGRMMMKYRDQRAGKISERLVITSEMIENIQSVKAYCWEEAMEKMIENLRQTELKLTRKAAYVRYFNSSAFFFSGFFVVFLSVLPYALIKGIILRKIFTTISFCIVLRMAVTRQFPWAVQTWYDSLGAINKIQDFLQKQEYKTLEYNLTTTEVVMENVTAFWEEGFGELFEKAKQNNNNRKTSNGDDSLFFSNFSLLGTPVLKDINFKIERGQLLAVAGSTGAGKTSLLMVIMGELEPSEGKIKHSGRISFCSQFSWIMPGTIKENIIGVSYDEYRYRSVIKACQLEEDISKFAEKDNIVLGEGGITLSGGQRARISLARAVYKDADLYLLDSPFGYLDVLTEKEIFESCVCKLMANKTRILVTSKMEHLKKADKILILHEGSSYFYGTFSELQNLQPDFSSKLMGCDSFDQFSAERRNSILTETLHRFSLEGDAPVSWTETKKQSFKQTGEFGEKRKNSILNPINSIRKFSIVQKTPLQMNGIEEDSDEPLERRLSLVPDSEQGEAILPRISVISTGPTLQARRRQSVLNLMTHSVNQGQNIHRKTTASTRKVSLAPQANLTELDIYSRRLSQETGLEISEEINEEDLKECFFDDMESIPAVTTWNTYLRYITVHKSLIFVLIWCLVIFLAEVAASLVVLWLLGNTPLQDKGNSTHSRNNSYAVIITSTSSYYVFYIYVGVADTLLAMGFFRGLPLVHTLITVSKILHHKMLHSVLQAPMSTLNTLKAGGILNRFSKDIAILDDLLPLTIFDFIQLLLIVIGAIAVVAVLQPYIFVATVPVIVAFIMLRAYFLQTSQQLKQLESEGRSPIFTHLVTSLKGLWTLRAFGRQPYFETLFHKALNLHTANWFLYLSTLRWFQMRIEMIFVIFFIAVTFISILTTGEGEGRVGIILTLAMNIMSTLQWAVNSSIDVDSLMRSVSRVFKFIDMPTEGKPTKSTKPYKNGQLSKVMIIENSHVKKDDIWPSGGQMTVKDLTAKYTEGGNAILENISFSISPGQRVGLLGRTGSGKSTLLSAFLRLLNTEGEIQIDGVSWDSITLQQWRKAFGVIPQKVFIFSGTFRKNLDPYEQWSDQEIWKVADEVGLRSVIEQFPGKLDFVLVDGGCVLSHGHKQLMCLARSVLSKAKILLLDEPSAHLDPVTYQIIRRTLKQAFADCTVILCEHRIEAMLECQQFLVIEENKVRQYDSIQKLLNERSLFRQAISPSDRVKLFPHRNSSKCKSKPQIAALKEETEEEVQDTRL
- test_summary: YFP halide-sensor iodide influx assay in FRT cells coexpressing ΔF508-CFTR
- Type: cell-based
- condition_context: iodide influx, FRT cells incubated with corrector at 37° C., assayed with forskolin (20 μM) + genistein (50 μM)
Listed compounds paired with reported Vmax

cpd_smiles | tested_on | readout_unit | Vmax
COc1ccc(Nc2cc(C)c3ccccc3n2)cc1O | ΔF508-CFTR (Homo sapiens, UniProt P13569, DEL508-508) | mM/s | 0.12
CCOc1ccccc1Nc1nc(-c2sc(NC(=O)c3ccccc3)nc2C)cs1 | ΔF508-CFTR (Homo sapiens, UniProt P13569, DEL508-508) | mM/s | 0.20
Cc1cc2nc(Nc3nc(=O)c(C)c(C)[nH]3)nc(C)c2cc1C | ΔF508-CFTR (Homo sapiens, UniProt P13569, DEL508-508) | mM/s | 0.15
Cc1ccc(-c2nc(NC(=O)c3ccc(C(C)(C)C)cc3)sc2C)cc1 | ΔF508-CFTR (Homo sapiens, UniProt P13569, DEL508-508) | mM/s | 0.11
Cc1ccc(-c2csc(Nc3ccc(F)cc3)n2)cc1 | ΔF508-CFTR (Homo sapiens, UniProt P13569, DEL508-508) | mM/s | 0.09

---

- tested_on: ΔF508-CFTR (Homo sapiens, UniProt P13569, DEL508-508)
- Construct: expressed in transfected cells; co-expressing YFP-H148Q/I152L in the fluorescence assay
- test_summary: YFP halide-sensor iodide influx assay in FRT cells coexpressing ΔF508-CFTR
- Assay type: cell-based
- condition_context: iodide influx dose-response, FRT cells incubated with corrector at 37° C., forskolin + genistein; read-out: Ka
measured_property: EC50 (µM)

cpd_smiles | readout_unit | endpoint_value
Cc1cc2nc(Nc3nc(=O)c(C)c(C)[nH]3)nc(C)c2cc1C | µM | 8.8
Cc1ccc(-c2csc(NC(=O)c3cccs3)n2)cc1C | µM | 6.3
C/C(=N\Nc1nc2ccccc2s1)c1ccc([N+](=O)[O-])cc1 | µM | 5.9
Oc1ccc(-c2csc(Nc3ncccn3)n2)cc1O | µM | 8.2
CCOc1ccccc1Nc1nc(-c2ccc(OC)c(OC)c2)cs1 | µM | 9.1
CCc1ccc(Nc2cc(C)c3ccccc3n2)cc1 | µM | 8.6
Cc1cc(Nc2ccccc2)nc2ccccc12 | µM | 10
Cc1ccc2nc(Nc3nc(=O)c4c([nH]3)CCC4)nc(C)c2c1 | µM | 13.9
Cc1ccc(-c2csc(Nc3ccc(F)cc3)n2)cc1 | µM | 5.5
COc1cc(Nc2nc(-c3ccc(C)cc3)cs2)c(OC)cc1Cl | µM | 10.2
C/C(=N\Nc1nc2ccccc2s1)c1ccc(Cl)cc1 | µM | 8
C=Cc1ccc(-c2csc(Nc3ccccc3)n2)cc1 | µM | 16
COc1ccc(Nc2cc(C)c3ccccc3n2)cc1O | µM | 7.3
C/C(CC(C)C)=N/Nc1nc(-c2ccccc2)cs1 | µM | 7.3
Clc1cccc(Nc2nc(-c3ccc4ccccc4c3)cs2)c1 | µM | 16.4
COc1ccc2nc(Nc3nc(O)cc(CSc4nc5ccccc5[nH]4)n3)nc(C)c2c1 | µM | 2.6
COc1ccccc1Nc1nc(-c2sc(NC(=O)c3ccccc3)nc2C)cs1 | µM | 7.2
COc1ccc(-c2csc(Nc3ncccc3C)n2)cc1C | µM | 12.1
COc1ccc2c(C)nc(Nc3nc(O)cc(-c4ccccc4)n3)nc2c1 | µM | 11.8
CC(=O)c1cccc(Nc2nc(-c3sc(NC(=O)c4ccccc4)nc3C)cs2)c1 | µM | 1.7
Cc1ccc(Nc2cc(C)c3ccccc3n2)cc1 | µM | 8.4
Cc1nc(NC(=O)c2ccccc2)sc1-c1csc(Nc2cccc([N+](=O)[O-])c2)n1 | µM | 6.9
COc1ccc(Cl)cc1Nc1cc(C)c2cc(C)ccc2n1 | µM | 15
CCOc1ccccc1Nc1nc(-c2sc(NC(=O)c3ccccc3)nc2C)cs1 | µM | 5.3
Cc1ccccc1Nc1nc(-c2ccc(C)c([N+](=O)[O-])c2)cs1 | µM | 15
Cc1ccc(-c2nc(NC(=O)c3ccc(C(C)(C)C)cc3)sc2C)cc1 | µM | 14.9
C/C(=N\Nc1nc2ccccc2s1)c1cccc([N+](=O)[O-])c1 | µM | 9

---

- tested_on: ΔF508-CFTR (Homo sapiens, UniProt P13569, DEL508-508)
- Construct: expressed in transfected cells; co-expressing YFP-H148Q/I152L in the fluorescence assay
- test_summary: YFP halide-sensor iodide influx assay in FRT cells coexpressing ΔF508-CFTR
- Assay type: cell-based
- condition_context: iodide influx, FRT cells incubated with corrector at 37° C., assayed with forskolin (20 μM) + genistein (50 μM)
// map Vmax onto a label; ranges lower bin: < 0.1 mM/s; middle bin: ≥ 0.1 mM/s and < 0.2 mM/s; upper bin: ≥ 0.2 mM/s

molecule | assigned_category
O=C(CSc1nc(-c2ccccc2)c[nH]1)Nc1nc(-c2ccc(Br)cc2)cs1 | middle bin
Cc1ccc2nc(Nc3nc(=O)c4c([nH]3)CCC4)nc(C)c2c1 | middle bin
Cc1cc(Nc2ccc(Br)cc2)nc2ccccc12 | middle bin
COc1ccc(-c2csc(Nc3ccc(NC(C)=O)cc3)n2)cc1OC | middle bin
Cc1cc(Nc2ccccc2)nc2ccccc12 | middle bin
C=Cc1ccc(-c2csc(Nc3ccccc3)n2)cc1 | upper bin
C/C(=N\Nc1nc2ccccc2s1)c1ccc([N+](=O)[O-])cc1 | lower bin
COc1ccccc1Nc1nc(-c2sc(NC(=O)c3ccccc3)nc2C)cs1 | upper bin
COc1ccc2c(C)nc(Nc3nc(O)cc(-c4ccccc4)n3)nc2c1 | middle bin
CC(=O)c1cccc(Nc2nc(-c3sc(NC(=O)c4ccccc4)nc3C)cs2)c1 | middle bin
CCc1ccc(Nc2cc(C)c3ccccc3n2)cc1 | lower bin
COc1ccc(C)cc1Nc1cc(C)c2ccccc2n1 | middle bin
CCCC1(CCC)NC(=S)N(C2=NC3C=CC=CC3S2)N1 (centres unmarked) | middle bin
C/C(=N\Nc1nc2ccccc2s1)c1cccc([N+](=O)[O-])c1 | lower bin
C/C(CC(C)C)=N/Nc1nc(-c2ccccc2)cs1 | middle bin
Cc1ccc(Nc2cc(C)c3ccccc3n2)cc1 | middle bin
COc1ccc(Cl)cc1Nc1nc(-c2sc(NC(=O)c3ccccc3)nc2C)cs1 | upper bin
COc1cc(Nc2nc(-c3ccc(C)cc3)cs2)c(OC)cc1Cl | middle bin
Cc1nc(NC(=O)c2ccccc2)sc1-c1csc(Nc2cccc([N+](=O)[O-])c2)n1 | middle bin
COc1ccc(-c2csc(Nc3ncccc3C)n2)cc1C | upper bin
COc1ccc2nc(Nc3nc(O)cc(CSc4nc5ccccc5[nH]4)n3)nc(C)c2c1 | middle bin
COOc1ccc(/C(C)=N\Nc2nc3ccccc3s2)cc1 | middle bin
CC(C)(C)C1CCC2(CC1)NC(=S)N(c1nc3ccccc3s1)N2 (centres unmarked) | lower bin
COc1ccc(Cl)cc1Nc1cc(C)c2cc(C)ccc2n1 | middle bin
C/C(=N\Nc1nc2ccccc2s1)c1ccc(Cl)cc1 | middle bin
Cc1cc(C)c2c(C)cc(Nc3ccccc3)nc2c1 | middle bin

---

- tested_on: ΔF508-CFTR (Homo sapiens, UniProt P13569, DEL508-508)
- Construct: expressed in transfected cells; co-expressing YFP-H148Q/I152L in the fluorescence assay
- test_summary: YFP halide-sensor iodide influx assay in FRT cells coexpressing ΔF508-CFTR
- Assay type: cell-based
- condition_context: absence of genistein, after incubation with corrector compound at 37° C. or 27° C.; read-out: Ka for the forskolin response
pEC50: −log10 of the molar value.
measured_property: pEC50

cpd_smiles | endpoint_value
C=C[C@@]1(C)CC(=O)[C@]2(O)[C@@]3(C)[C@@H](O)CCC(C)(C)[C@@H]3[C@H](O)[C@H](OC(C)=O)[C@@]2(C)O1 | ~5.52

---

- tested_on: ΔF508-CFTR (Homo sapiens, UniProt P13569, DEL508-508)
- Construct: expressed in transfected cells; co-expressing YFP-H148Q/I152L in the fluorescence assay
- test_summary: YFP halide-sensor iodide influx assay in FRT cells coexpressing ΔF508-CFTR
- Assay type: cell-based
- condition_context: iodide influx, FRT cells incubated with corrector at 37° C., assayed with forskolin (20 μM) + genistein (50 μM)

compound | Vmax
CCOc1ccccc1Nc1nc(-c2ccc(OC)c(OC)c2)cs1 [corr-2h] | 0.10 ± 0.01 mM/s
COc1ccc2nc(Nc3nc(=O)c(C)c(C)[nH]3)nc(C)c2c1 [corr-3d] | 0.20 ± 0.07 mM/s
Clc1cccc(Nc2nc(-c3ccc4ccccc4c3)cs2)c1 [corr-2c] | 0.10 ± 0.02 mM/s
Oc1ccc(-c2csc(Nc3ncccn3)n2)cc1O [corr-2d] | 0.10 ± 0.02 mM/s
Cc1ccccc1Nc1nc(-c2ccc(C)c([N+](=O)[O-])c2)cs1 [corr-2j] | 0.10 ± 0.01 mM/s
Cc1ccc(-c2csc(NC(=O)c3cccs3)n2)cc1C [corr-2e] | 0.10 ± 0.01 mM/s
